Reference for the values: ChEMBL document CHEMBL1126763

Tested on: Rattus norvegicus
Assay details: Inhibitory activity on AII (100 ng/kg iv) -induced pressor response after administration at 0.1 mg/kg po in Dawley rats at 0.5 h
Assay type: functional
Observable: inhibition in vivo at 0.1 mg/kg (%)
The reply should be a number in %, with the unit left off.

Challenge: Identify measured inhibition in vivo at 0.1 mg/kg associated with "CCCCc1nc2cccc(C(=O)OCC)c2n1Cc1ccc(-c2ccccc2-c2nn[nH]n2)cc1"
Response given: 7

Challenge: Please give the documented inhibition in vivo at 0.1 mg/kg of "CCCCc1nc2cccc(C(=O)O)c2n1Cc1ccc(-c2ccccc2-c2nn[nH]n2)cc1"
Response given: 8

Challenge: Please report inhibition in vivo at 0.1 mg/kg for the following compound: "CCCCc1nc2cccc(C(=O)OC)c2n1Cc1ccc(-c2ccccc2-c2nn[nH]n2)cc1"
Response given: 11

Challenge: Quickly give me recorded inhibition in vivo at 0.1 mg/kg for "CCCCOC(=O)c1cccc2nc(CCCC)n(Cc3ccc(-c4ccccc4-c4nn[nH]n4)cc3)c12"
Response given: 16

Challenge: Tell me measured inhibition in vivo at 0.1 mg/kg for "CCCCc1nc2cccc(C(=O)OCCN3CCCCC3)c2n1Cc1ccc(-c2ccccc2-c2nn[nH]n2)cc1" please.
Response given: 20

Challenge: Give inhibition in vivo at 0.1 mg/kg for the following compound: "CCCCc1nc2cccc(C(=O)O)c2n1Cc1ccc(-c2ccccc2-c2nnn(C)n2)cc1"
Response given: 22

Challenge: Entry "CCCCc1nc2cccc(C(=O)OCCN(C)C)c2n1Cc1ccc(-c2ccccc2-c2nn[nH]n2)cc1" needs its inhibition in vivo at 0.1 mg/kg filled in; supply it.
Response given: 0

Challenge: Determine its reported inhibition in vivo at 0.1 mg/kg: "CCCCc1nc2cccc(C(=O)OCCN3CCOCC3)c2n1Cc1ccc(-c2ccccc2-c2nn[nH]n2)cc1"
Response given: 67

Challenge: Please give the documented inhibition in vivo at 0.1 mg/kg of "CCCCc1nc2cccc(C(=O)OCCO)c2n1Cc1ccc(-c2ccccc2-c2nn[nH]n2)cc1"
Response given: 7

Challenge: Return inhibition in vivo at 0.1 mg/kg (reported value) for this compound: "CCCCc1nc2cccc(C(=O)O)c2n1Cc1ccc(-c2ccccc2-c2nnnn2C)cc1"
Response given: 12

----------
Study target: Angiotensin II receptor (Rattus norvegicus) (UniProt P29089+P25095+P35351)
Assay details: Inhibitory activity on AII (100 ng/kg iv)-induced pressor response after administration at 0.1 mg/kg po in conscious male Sprague-Dawley rats at 7 h.
Assay type: functional, organism-based
Parameters: dose 0.1 mg/kg
Lab note: anything with inhibition at or over 60% counts as Met; the rest go in Not met.

Challenge: Is the recorded value of inhibition equal to or greater than 60% for this compound? "CCCCc1nc2cccc(C(=O)OC)c2n1Cc1ccc(-c2ccccc2-c2nn[nH]n2)cc1"
Response given: Not met

Challenge: Exam item: decide whether the reported inhibition for "CCCCc1nc2cccc(C(=O)O)c2n1Cc1ccc(-c2ccccc2-c2nnnn2C)cc1" is at least 60%.
Response given: Not met

Challenge: Quick check, inhibition >= 60%? "CCOc1nc2cccc(C(=O)OCOC(=O)/C=C/c3ccccc3)c2n1Cc1ccc(-c2ccccc2-c2nn[nH]n2)cc1"
Response given: Met

Challenge: Determine whether measured inhibition meets or exceeds 60% for "CCOc1nc2cccc(C(=O)OCOC(=O)OC3CCCCC3)c2n1Cc1ccc(-c2ccccc2-c2nn[nH]n2)cc1"
Response given: Not met

Challenge: Does inhibition meet or surpass 60% for "CCOc1nc2cccc(C(=O)OCOC(=O)CC)c2n1Cc1ccc(-c2ccccc2-c2nn[nH]n2)cc1" ?
Response given: Not met

Challenge: Could you verify whether the entry "CCOc1nc2cccc(C(=O)OCOC(=O)OC(C)C)c2n1Cc1ccc(-c2ccccc2-c2nn[nH]n2)cc1" shows inhibition of no less than 60%?
Response given: Not met

Challenge: In plain terms: is recorded inhibition at least 60% for "CCOc1nc2cccc(C(=O)OCOC(=O)C(C)(C)C)c2n1Cc1ccc(-c2ccccc2-c2nn[nH]n2)cc1" ?
Response given: Met

----------
For each of the compounds below, state its inhibition.
Study target: Angiotensin II receptor (Rattus norvegicus) (UniProt P29089+P25095+P35351)
Assay details: Inhibitory activity on AII (100 ng/kg iv)-induced pressor response after administration at 0.1 mg/kg po in conscious male Sprague-Dawley rats at 3 h.
Type: functional, organism-based
Parameters: dose 0.1 mg/kg
Don't forget the unit after the value.

Challenge: Could you please provide reported inhibition for "CCCCc1nc(Cl)c(CO)n1Cc1ccc(-c2ccccc2-c2nnn[nH]2)cc1" ? Thanks!
Response given: 21%

Challenge: Using known records, supply inhibition for CCCCc1nc2cccc(C(=O)OC(C)OC(=O)OCC)c2n1Cc1ccc(-c2ccccc2-c2nn[nH]n2)cc1 (stereo not drawn)
Response given: 89%

Challenge: Complete the entry with inhibition for "CCCCc1nc2cccc(C(=O)OCc3ccncc3)c2n1Cc1ccc(-c2ccccc2-c2nn[nH]n2)cc1"
Response given: 16%

Challenge: For the compound "CCOc1nc2cccc(C(=O)OCOC(=O)c3ccccc3)c2n1Cc1ccc(-c2ccccc2-c2nn[nH]n2)cc1" , give its reported inhibition.
Response given: 56%

Challenge: Annotate the compound "CCCCc1nc2cccc(C(=O)OCOC(=O)C(C)(C)C)c2n1Cc1ccc(-c2ccccc2-c2nn[nH]n2)cc1" with its measured inhibition.
Response given: 95%

Challenge: State, in one line, measured inhibition of "CCOc1nc2cccc(C(=O)OCOC(=O)/C=C/c3ccccc3)c2n1Cc1ccc(-c2ccccc2-c2nn[nH]n2)cc1"
Response given: 80%

Challenge: Identify measured inhibition corresponding to "CCCCc1nc2cccc(C(=O)OCc3oc(=O)oc3C)c2n1Cc1ccc(-c2ccccc2-c2nn[nH]n2)cc1"
Response given: 88%

Challenge: In one line, give reported inhibition of the entry "CCOc1nc2cccc(C(=O)OCOC(=O)OCC3CC3)c2n1Cc1ccc(-c2ccccc2-c2nn[nH]n2)cc1" .
Response given: 58%

----------
Study target: Angiotensin II receptor (Rattus norvegicus) (UniProt P29089+P25095+P35351)
Assay details: Inhibitory activity on AII (100 ng/kg iv)-induced pressor response after administration at 0.1 mg/kg po in conscious male Sprague-Dawley rats at 7 h.
Format: functional, organism-based
Set-up: dose 0.1 mg/kg
Observable: inhibition (%)
Kindly provide the numeric value in % only, without the unit symbol.

Challenge: Specify inhibition for "CCCCc1nc2cccc(C(=O)OCCO)c2n1Cc1ccc(-c2ccccc2-c2nn[nH]n2)cc1" and stop.
Response given: 25

Challenge: Please report the measured inhibition for CCOc1nc2cccc(C(=O)OC(C)OC(=O)OC3CCCCC3)c2n1Cc1ccc(-c2ccccc2-c2nn[nH]n2)cc1 (stereo unspecified)
Response given: 75

Challenge: Report inhibition for "CCOc1nc2cccc(C(=O)OCOC(=O)OC3CCCC3)c2n1Cc1ccc(-c2ccccc2-c2nn[nH]n2)cc1"
Response given: 64

Challenge: Return reported inhibition. Input molecule: "CCCCc1nc2cccc(C(=O)OCCN3CCCCC3)c2n1Cc1ccc(-c2ccccc2-c2nn[nH]n2)cc1"
Response given: 49

Challenge: # return recorded inhibition for entry CCCCc1nc2cccc(C(=O)OC(C)OC(=O)OC3CCCCC3)c2n1Cc1ccc(-c2ccccc2-c2nn[nH]n2)cc1 (stereo unspecified)
Response given: 79

Challenge: Specify inhibition for "CCCCc1nc2cccc(C(=O)OCc3ccncc3)c2n1Cc1ccc(-c2ccccc2-c2nn[nH]n2)cc1" and stop.
Response given: 8

Challenge: Give inhibition for CCOc1nc2cccc(C(=O)OC(C)OC(C)=O)c2n1Cc1ccc(-c2ccccc2-c2nn[nH]n2)cc1 (stereo unspecified)
Response given: 75

Challenge: // Input: CCOc1nc2cccc(C(=O)OC(C)OC(=O)OC(CC)CC)c2n1Cc1ccc(-c2ccccc2-c2nn[nH]n2)cc1 (stereo unspecified) . Output its inhibition only.
Response given: 53

Challenge: Answer with the recorded inhibition for the molecule listed here: "CCCCc1nc2cccc(C(=O)OCCN(C)C)c2n1Cc1ccc(-c2ccccc2-c2nn[nH]n2)cc1"
Response given: 14

Challenge: Look up and state reported inhibition for CCOc1nc2cccc(C(=O)OC(C)OC(=O)OC(C)C)c2n1Cc1ccc(-c2ccccc2-c2nn[nH]n2)cc1 (stereo unspecified)
Response given: 67

Challenge: Respond only with inhibition recorded for "CCCCc1nc2cccc(C(=O)O)c2n1Cc1ccc(-c2ccccc2-c2nnn(COC(=O)C(C)(C)C)n2)cc1.CCCCc1nc2cccc(C(=O)O)c2n1Cc1ccc(-c2ccccc2-c2nnnn2COC(=O)C(C)(C)C)cc1"
Response given: 69

Challenge: Let me know recorded inhibition for CCOC(=O)OC(C)OC(=O)c1cccc2nc(OCC)n(Cc3ccc(-c4ccccc4-c4nn[nH]n4)cc3)c12 (stereo unspecified) , thanks.
Response given: 71

Challenge: Return inhibition for the following molecule: "CCCC(=O)OCOC(=O)c1cccc2nc(OCC)n(Cc3ccc(-c4ccccc4-c4nn[nH]n4)cc3)c12"
Response given: 48

Challenge: Hello, please tell me recorded inhibition for this one: "CCOc1nc2cccc(C(=O)OCc3oc(=O)oc3C)c2n1Cc1ccc(-c2ccccc2-c2nn[nH]n2)cc1"
Response given: 44

Challenge: Output measured inhibition for this item: "CCCCc1nc2cccc(C(=O)OCC)c2n1Cc1ccc(-c2ccccc2-c2nn[nH]n2)cc1"
Response given: 63

Challenge: Using the record for "CCOc1nc2cccc(C(=O)OCOC(=O)c3ccccc3)c2n1Cc1ccc(-c2ccccc2-c2nn[nH]n2)cc1" , state its measured inhibition.
Response given: 76
